Listed sequences paired with reported PBM binding z-score
System: PPARg DBDmut:RXRa IVT, anti-PPARg (DBD mutation: PPARg1 K132A/R137A, NR concentration 270 nM, RXRa partner concentration 90 nM)
Method description: PBM binding z-score (relative to random genomic background probes); higher = stronger binding; sequences stand for … in GC…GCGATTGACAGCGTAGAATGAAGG

| Residues | Result |
| --- | --- |
| ATATGTAGGTTCGCTGGGGTCATTCAGACTAGGC | 1.92 |
| TCTGCTAGGACAGTTGGTCAGCTAACGAGCTGCC | -0.543 |
| TCATATAGGTAATACAAGTGAAAGTCGGCATCTA | 0.992 |
| TAGCCTAGGTAAGATCGGGCCAGTATACGCTATA | -2.06 |
| TCATATATGTAAACAGGTGAAAGTCCGTAAGTTA | 1.25 |

Input: Give me measured PBM binding z-score, please, for this sequence: CCTACTGGGCCAAGGTCATTGTTCAGTCAAAGCA
Output: 1.57

Input: Give me measured PBM binding z-score, please, for this sequence: CCTATTAGTTGACCATAAGGGCAACTGAAGCTCG
Output: 0.663

Input: Give me measured PBM binding z-score, please, for this sequence: TCTGCTAGGTGAGTTGGTCAGCTAACGAGCTGCC
Output: 0.145

Input: Give me measured PBM binding z-score, please, for this sequence: CCTACTGGGCCAAAAAGGGCATTGATGCCGATAA
Output: -1.19

Input: Give me measured PBM binding z-score, please, for this sequence: CTGCCAAGGTGAACAAGGTCGTTGATTACTATTC
Output: -0.417

Input: Give me measured PBM binding z-score, please, for this sequence: CGAACGAGGGCATGAGATGATAGCAAATGCCGAT
Output: 0.746

Input: Give me measured PBM binding z-score, please, for this sequence: TAGCCTAGGTCATGCGGGCCAGTTTAGTGTCGGC
Output: -0.215

Input: Give me measured PBM binding z-score, please, for this sequence: TCTAGCTGGCCAGAGGGTCACTCAAGAGGTACGG
Output: -1.57

Input: Give me measured PBM binding z-score, please, for this sequence: AGTCAAAGTTAACTAGGTAACGTAAGATTCAGCT
Output: 1

Input: Give me measured PBM binding z-score, please, for this sequence: GCTTACGGGTCAACGGTTATAGCATGAATAGAAT
Output: 2.69

Input: Give me measured PBM binding z-score, please, for this sequence: CCAGACAGGTGTGAAGGTAACTCAGCCTCGATTA
Output: -1.46

Input: Give me measured PBM binding z-score, please, for this sequence: TCTGCTAGGTCAACCATGGTCAGCTAATCTGCTA
Output: -0.545

Input: Give me measured PBM binding z-score, please, for this sequence: CAAACTAGGACACCGGAAGGTCAAAGTCCGCATG
Output: 2.4

Input: Give me measured PBM binding z-score, please, for this sequence: TCTAGCAGGCCAGAGCGTCACTCAAGAGGTACGG
Output: -0.145
